Reported values of CellTox Green cytotoxicity fluorescence for individual entries
Tested on: MV4-11
Test: CellTox Green cytotoxicity fluorescence relative to DMSO vehicle (fold of vehicle RFU); higher = more cell death (loss of membrane integrity), active = 2 or more
Details: 0.01 µM; 72 h
Lab note: record just the number, no unit beside it.

Use the examples below as a reference point.
{"compound": "Cn1c(COP(=O)(NCCBr)NCCBr)cnc1[N+](=O)[O-]", "CellTox Green cytotoxicity fluorescence": 0.974}
{"compound": "COc1cc(C)[nH]c(=O)c1CNC(=O)c1c(C)n([C@H](C)C2CCOCC2)c2ccccc12", "CellTox Green cytotoxicity fluorescence": 0.941}

q: Tell me reported CellTox Green cytotoxicity fluorescence for COc1ccc2c(c1)/C(=C/c1cnc[nH]1)C(=O)N2 , tested with MV4-11.
a: 0.921

q: // query: COc1cc([C@@H]2c3cc4c(cc3[C@H](O)[C@H]3COC(=O)[C@@H]23)OCO4)cc(OC)c1OC [Picropodophyllin]
a: 0.939

====

Tested on: Kasumi-1
Assay: CellTox Green cytotoxicity fluorescence relative to DMSO vehicle (fold of vehicle RFU); higher = more cell death (loss of membrane integrity), active = 2 or more
Details: 0.1 µM; 72 h
measureName: CellTox Green cytotoxicity fluorescence

Use the examples below as a reference point.
{"smilesData": "Cn1c(COP(=O)(NCCBr)NCCBr)cnc1[N+](=O)[O-]", "target": "Kasumi-1", "result": "0.952 (inactive)"}
{"smilesData": "CN[C@@H]1C[C@H]2O[C@@](C)([C@@H]1OC)n1c3ccccc3c3c4c(c5c6ccccc6n2c5c31)C(=O)NC4", "target": "Kasumi-1", "result": "1.74 (inactive)"}
{"smilesData": "O=c1[nH]c2ccccc2n1C1CCN(Cc2ccc(-c3[nH]c4cc5ncnc5cc4nc3-c3ccccc3)cc2)CC1", "target": "Kasumi-1", "result": "0.958 (inactive)"}
{"smilesData": "CC1=C(O)C(=O)C=C2C1=CC=C1[C@@]2(C)CC[C@@]2(C)[C@@H]3C[C@](C)(C(=O)O)CC[C@]3(C)CC[C@]12C", "target": "Kasumi-1", "result": "0.952 (inactive)"}
{"smilesData": "CC[C@H](C)[C@@H]([C@@H](CC(=O)N1CCC[C@H]1[C@H](OC)[C@@H](C)C(=O)N[C@H](C)[C@@H](O)c1ccccc1)OC)N(C)C(=O)[C@@H](NC(=O)[C@@H](NC)C(C)C)C(C)C", "target": "Kasumi-1", "result": "1.53 (inactive)"}

q: Any idea what CellTox Green cytotoxicity fluorescence was measured for COc1cc([C@@H]2c3cc4c(cc3[C@H](O)[C@H]3COC(=O)[C@@H]23)OCO4)cc(OC)c1OC ?
a: 1.06 (inactive)

q: // query: COc1ccc2c(c1)/C(=C/c1cnc[nH]1)C(=O)N2
a: 0.966 (inactive)

q: // query: O=C(O)C(=O)c1cn(Cc2ccccc2)c2ccc(-c3ccc(OC(F)(F)F)cc3)cc12
a: 1.03 (inactive)

====

System: CMK
Test: CellTox Green cytotoxicity fluorescence relative to DMSO vehicle (fold of vehicle RFU); higher = more cell death (loss of membrane integrity), active = 2 or more
Details: 0.01 µM; 24 h
measureName: CellTox Green cytotoxicity fluorescence
Lab note: record just the number, no unit beside it.

Use the examples below as a reference point.
{"smilesData": "CC1=C(O)C(=O)C=C2C1=CC=C1[C@@]2(C)CC[C@@]2(C)[C@@H]3C[C@](C)(C(=O)O)CC[C@]3(C)CC[C@]12C", "quantitativeReadout": 0.959}
{"smilesData": "Cn1c(COP(=O)(NCCBr)NCCBr)cnc1[N+](=O)[O-]", "quantitativeReadout": 0.974}
{"smilesData": "COc1ccc2c(c1)/C(=C/c1cnc[nH]1)C(=O)N2", "quantitativeReadout": 0.911}

We now examine a further compound.
q: Tell me reported CellTox Green cytotoxicity fluorescence for CC[C@H](C)[C@@H]([C@@H](CC(=O)N1CCC[C@H]1[C@H](OC)[C@@H](C)C(=O)N[C@H](C)[C@@H](O)c1ccccc1)OC)N(C)C(=O)[C@@H](NC(=O)[C@@H](NC)C(C)C)C(C)C , tested with CMK.
a: 1.24

====

Tested on: Kasumi-1
Experiment: CellTox Green cytotoxicity fluorescence relative to DMSO vehicle (fold of vehicle RFU); higher = more cell death (loss of membrane integrity), active = 2 or more
Details: 0.01 µM; 24 h
Reported values of CellTox Green cytotoxicity fluorescence for individual entries
Lab note: record just the number, no unit beside it.

Use the examples below as a reference point.
{"smilesData": "O=C(O)C(=O)c1cn(Cc2ccccc2)c2ccc(-c3ccc(OC(F)(F)F)cc3)cc12", "CellTox Green cytotoxicity fluorescence": 1.02}
{"smilesData": "COc1cc(C)[nH]c(=O)c1CNC(=O)c1c(C)n([C@H](C)C2CCOCC2)c2ccccc12", "CellTox Green cytotoxicity fluorescence": 0.935}
{"smilesData": "Cc1cc2c(C(C)C)c(O)c(O)c(C=O)c2c(O)c1-c1c(C)cc2c(C(C)C)c(O)c(O)c(C=O)c2c1O", "CellTox Green cytotoxicity fluorescence": 0.96}
{"smilesData": "O=c1[nH]c2ccccc2n1C1CCN(Cc2ccc(-c3[nH]c4cc5ncnc5cc4nc3-c3ccccc3)cc2)CC1", "CellTox Green cytotoxicity fluorescence": 0.972}

We now examine a further compound.
q: Tell me reported CellTox Green cytotoxicity fluorescence for CC1=C(O)C(=O)C=C2C1=CC=C1[C@@]2(C)CC[C@@]2(C)[C@@H]3C[C@](C)(C(=O)O)CC[C@]3(C)CC[C@]12C , tested with Kasumi-1.
a: 0.916

====

Tested on: MV4-11
Assay: CellTox Green cytotoxicity fluorescence relative to DMSO vehicle (fold of vehicle RFU); higher = more cell death (loss of membrane integrity), active = 2 or more
Conditions: 0.1 µM; 72 h
The reply should name one outcome from Yes for active, No for inactive

{"compound": "CN[C@@H]1C[C@H]2O[C@@](C)([C@@H]1OC)n1c3ccccc3c3c4c(c5c6ccccc6n2c5c31)C(=O)NC4 [Staurosporine]", "groupLabel": "No"}
{"compound": "CC[C@H](C)[C@@H]([C@@H](CC(=O)N1CCC[C@H]1[C@H](OC)[C@@H](C)C(=O)N[C@H](C)[C@@H](O)c1ccccc1)OC)N(C)C(=O)[C@@H](NC(=O)[C@@H](NC)C(C)C)C(C)C [Monomethyl auristatin E]", "groupLabel": "Yes"}
{"compound": "Cn1c(COP(=O)(NCCBr)NCCBr)cnc1[N+](=O)[O-]", "groupLabel": "No"}
{"compound": "O=c1[nH]c2ccccc2n1C1CCN(Cc2ccc(-c3[nH]c4cc5ncnc5cc4nc3-c3ccccc3)cc2)CC1", "groupLabel": "No"}

Okay, next one:
q: Just curious, what result did COc1cc([C@@H]2c3cc4c(cc3[C@H](O)[C@H]3COC(=O)[C@@H]23)OCO4)cc(OC)c1OC [Picropodophyllin] get here?
a: No

====

Tested on: CMK
Test: CellTox Green cytotoxicity fluorescence relative to DMSO vehicle (fold of vehicle RFU); higher = more cell death (loss of membrane integrity), active = 2 or more
Details: 0.1 µM; 72 h
Decide using CellTox Green cytotoxicity fluorescence: a value greater than or equal to 1 is class 1, a smaller one is class 0.

Some entries whose results are on file:
{"smilesData": "COc1cc(C)[nH]c(=O)c1CNC(=O)c1c(C)n([C@H](C)C2CCOCC2)c2ccccc12", "groupLabel": "class 0"}
{"smilesData": "CC1=C(O)C(=O)C=C2C1=CC=C1[C@@]2(C)CC[C@@]2(C)[C@@H]3C[C@](C)(C(=O)O)CC[C@]3(C)CC[C@]12C", "groupLabel": "class 0"}
{"smilesData": "CC[C@H](C)[C@@H]([C@@H](CC(=O)N1CCC[C@H]1[C@H](OC)[C@@H](C)C(=O)N[C@H](C)[C@@H](O)c1ccccc1)OC)N(C)C(=O)[C@@H](NC(=O)[C@@H](NC)C(C)C)C(C)C", "groupLabel": "class 1"}

q: # check: CellTox Green cytotoxicity fluorescence of COc1ccc2c(c1)/C(=C/c1cnc[nH]1)C(=O)N2 is greater than or equal to 1
a: class 1

q: // query: CN[C@@H]1C[C@H]2O[C@@](C)([C@@H]1OC)n1c3ccccc3c3c4c(c5c6ccccc6n2c5c31)C(=O)NC4
a: class 1

q: // query: Cc1cc2c(C(C)C)c(O)c(O)c(C=O)c2c(O)c1-c1c(C)cc2c(C(C)C)c(O)c(O)c(C=O)c2c1O
a: class 0

====

Reported values of CellTox Green cytotoxicity fluorescence for individual entries
Tested on: Kasumi-1
Test: CellTox Green cytotoxicity fluorescence relative to DMSO vehicle (fold of vehicle RFU); higher = more cell death (loss of membrane integrity), active = 2 or more
Conditions: 1 µM; 72 h
Lab note: record just the number, no unit beside it.

Use the examples below as a reference point.
{"smilesData": "Cn1c(COP(=O)(NCCBr)NCCBr)cnc1[N+](=O)[O-]", "CellTox Green cytotoxicity fluorescence": 0.977}
{"smilesData": "COc1cc(C)[nH]c(=O)c1CNC(=O)c1c(C)n([C@H](C)C2CCOCC2)c2ccccc12", "CellTox Green cytotoxicity fluorescence": 0.976}

q: Any idea what CellTox Green cytotoxicity fluorescence was measured for Cc1cc2c(C(C)C)c(O)c(O)c(C=O)c2c(O)c1-c1c(C)cc2c(C(C)C)c(O)c(O)c(C=O)c2c1O ?
a: 0.978
